Please go through the items and note down their inhibition of growth at 10 µM.
system: SNB-75; experiment: Growth inhibition of human SNB-75 cells at 10 uM incubated for 48 hrs by sulforhodamine B assay relative to control; format: functional; conditions: read-out: GI
Give bare numbers, in %.

Completed entries (count: 4):
- smilesCode: "COc1cc2nc(-c3ccco3)cc(OCCCN3CCC(O)CC3)c2cc1OC"
  systemUnderTest: "SNB-75"
  scaleUnit: "%"
  inhibition of growth at 10 µM: 46
- smilesCode: "COc1cc2nc(-c3ccc(Cl)cc3)cc(OCCCN3CCOCC3)c2cc1OC"
  systemUnderTest: "SNB-75"
  scaleUnit: "%"
  inhibition of growth at 10 µM: 62
- smilesCode: "COc1cc2nc(-c3ccc(Cl)cc3)cc(OCCCN3CCC(O)CC3)c2cc1OC"
  systemUnderTest: "SNB-75"
  scaleUnit: "%"
  inhibition of growth at 10 µM: 62
- smilesCode: "COc1cc2nc(-c3ccc(Cl)cc3)cc(OCCN3CCC(O)CC3)c2cc1OC"
  systemUnderTest: "SNB-75"
  scaleUnit: "%"
  inhibition of growth at 10 µM: 3

Let's switch to this molecule now.
Query: Form field: inhibition of growth at 10 µM recorded for `COc1cc2nc(-c3ccc(C(F)(F)F)cc3)cc(OCCN3CCCC3)c2cc1OC` with SNB-75 (enter value)
Result: 13

Reference source: ChEMBL document CHEMBL4732237
